FYI, the data here is from patent US20070093460A1.

pIC50 values by entry
# targetOfAssay: 11β-HSD1 Reductase (Rattus norvegicus)
# Sequence (P16232 whole entry): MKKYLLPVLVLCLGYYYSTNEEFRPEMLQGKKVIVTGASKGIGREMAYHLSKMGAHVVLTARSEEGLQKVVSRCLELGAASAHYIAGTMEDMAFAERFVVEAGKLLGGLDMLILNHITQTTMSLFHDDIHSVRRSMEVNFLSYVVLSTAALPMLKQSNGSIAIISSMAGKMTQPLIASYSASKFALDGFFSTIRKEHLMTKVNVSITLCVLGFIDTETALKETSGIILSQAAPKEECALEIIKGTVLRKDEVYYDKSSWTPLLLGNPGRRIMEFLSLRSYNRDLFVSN
# assayDetails: 11β-HSD1 reductase assay in rat Leydig cell homogenates;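 further: rat Leydig cell homogenate incubated 20 min at 37 °C, pH 7.4, with tritiated 11-dehydro-corticosterone and 3 mM NADPH, product measured by HPLC, inhibition from triplicate dose–response curves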
Please report pIC50 as the negative decimal logarithm of the molar concentration, giving only the number.

- compound: "C[C@]12CC[C@@H](O)C[C@@H]1CC[C@@H]1[C@@H]2[C@@H](O)C[C@]2(C)[C@@H](O)CC[C@@H]12 [11β-OH-androstanediol, 5α-Androstan-3α,11β,17β-triol]"
  endpoint: "pIC50"
  number: 4.94

Could you tell me which pIC50 is on file for C[C@]12CC[C@@H](O)C[C@H]1CC[C@@H]1[C@@H]2C(=O)C[C@@]2(C)[C@H]1CC[C@]2(O)C(=O)CO [3α,5β-TH-Cortisone, 5β-Pregnan-3α, 17α,21-triol-11,20-dione] ?
4.22
